Biological target: TYK2 (Homo sapiens, UniProt P29597)
Sequence (P29597 whole entry): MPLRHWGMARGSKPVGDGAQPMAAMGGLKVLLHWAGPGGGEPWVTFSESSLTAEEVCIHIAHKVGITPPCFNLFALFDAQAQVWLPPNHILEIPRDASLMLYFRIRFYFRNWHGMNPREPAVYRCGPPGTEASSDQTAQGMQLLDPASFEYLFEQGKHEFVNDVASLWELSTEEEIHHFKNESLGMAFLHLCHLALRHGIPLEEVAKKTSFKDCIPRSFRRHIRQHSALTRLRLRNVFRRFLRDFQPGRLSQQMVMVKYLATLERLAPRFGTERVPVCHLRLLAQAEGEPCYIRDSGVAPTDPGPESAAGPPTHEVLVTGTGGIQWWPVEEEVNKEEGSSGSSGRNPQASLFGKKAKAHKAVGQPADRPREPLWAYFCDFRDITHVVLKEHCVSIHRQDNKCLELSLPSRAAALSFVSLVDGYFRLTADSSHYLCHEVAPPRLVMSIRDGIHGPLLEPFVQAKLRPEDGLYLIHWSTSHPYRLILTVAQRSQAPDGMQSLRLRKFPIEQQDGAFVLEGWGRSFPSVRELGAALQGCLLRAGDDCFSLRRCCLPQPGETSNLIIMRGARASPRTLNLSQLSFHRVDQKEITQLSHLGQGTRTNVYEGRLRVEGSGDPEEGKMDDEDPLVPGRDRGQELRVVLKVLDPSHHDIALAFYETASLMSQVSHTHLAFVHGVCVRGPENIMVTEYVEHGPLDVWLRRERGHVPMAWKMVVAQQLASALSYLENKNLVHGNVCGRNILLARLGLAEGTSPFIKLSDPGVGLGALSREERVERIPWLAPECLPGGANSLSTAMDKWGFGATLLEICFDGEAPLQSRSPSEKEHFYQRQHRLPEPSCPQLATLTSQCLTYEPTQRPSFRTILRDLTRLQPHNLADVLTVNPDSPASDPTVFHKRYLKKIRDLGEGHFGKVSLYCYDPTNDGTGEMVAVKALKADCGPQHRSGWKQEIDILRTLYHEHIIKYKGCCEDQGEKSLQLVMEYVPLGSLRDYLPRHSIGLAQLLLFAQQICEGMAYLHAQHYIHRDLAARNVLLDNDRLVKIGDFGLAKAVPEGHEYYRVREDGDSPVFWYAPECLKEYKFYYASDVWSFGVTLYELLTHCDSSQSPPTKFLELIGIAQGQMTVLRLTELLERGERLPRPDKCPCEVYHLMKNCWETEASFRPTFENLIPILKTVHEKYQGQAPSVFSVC
Assay: TYK2 degradation MSD assay in OCI-LY10 cells
Format: cell-based
Set-up: endogenous in cells; host or cells: EBV-B cells
Details: 4 to 24 hours incubation, read-out: TYK2 MSD DC50 rating in OCI-LY10
List of DC50 values.

# Compound, DC50
records = [
    ("CNC(=O)c1cnc(Nc2ccc(CN3CCC(OC4CC(c5ccc6c(c5)n(C)c(=O)n6C5CCC(=O)NC5=O)C4)CC3)cn2)cc1Nc1cccc(-c2ncc(F)cn2)c1OC (stereo not drawn)", "> 0.1 µM"),
    ("CC#Cc1nn(-c2cccc(F)c2OC)c2cc(Nc3ccc(CN(C)C4CCN(c5cccc6c5n(C)c(=O)n6C5CCC(=O)NC5=O)CC4)cn3)ncc12 (stereo not drawn)", "> 0.1 µM"),
]

Now take the following compound into account.
Prompt: Specify reported DC50 for the compound shown: CNc1cc(Nc2cccn(-c3cc(C(=O)NCCOCCOCCc4ccc5c(c4)n(C)c(=O)n5C4CCC(=O)NC4=O)ccn3)c2=O)nn2c(C(=O)N[C@@H]3C[C@@H]3F)cnc12 (stereo partly drawn)
Response: > 0.1 µM

###

Target: TYK2 (Homo sapiens)
Experiment: TYK2 degradation MSD assay in human PBMC cells
Assay type: cell-based
Design: endogenous in cells; host or cells: human PBMC
Conditions: 4 to 24 hours incubation, read-out: TYK2 MSD DC50 rating in human PBMC
Attribute: DC50

The following compounds have reported results that may help.
# Compound, DC50
records = [
    ("CNC(=O)c1cnc(Nc2ccc(CN3CCN(CC#Cc4ccc5c(c4)n(C)c(=O)n5C4CCC(=O)NC4=O)CC3)cn2)cc1Nc1cccc(-c2ncc(F)cn2)c1OC (centres unmarked) [Example K701]", "< 1 nM"),
    ("CNC(=O)c1cnc(Nc2ccc(CN3CCN(Cc4ccc5c(c4)n(C)c(=O)n5C4CCC(=O)NC4=O)CC3)cn2)cc1Nc1cccc(-c2ncc(F)cn2)c1OC (centres unmarked) [Example K194]", "< 1 nM"),
    ("Cn1c(=O)n(C2CCC(=O)NC2=O)c2ccc(CCCCNC(=O)c3cccc(Nc4ccc5ncc(C(=O)N[C@@H]6C[C@@H]6F)n5n4)c3)cc21 (some centres unmarked) [Example K328]", "> 100 nM"),
    ("CNC(=O)c1cnc(Nc2ccc(CN3CCC(OC4CC(c5ccc6c(c5)n(C)c(=O)n6C5CCC(=O)NC5=O)C4)CC3)cn2)cc1Nc1cccc(-c2ncc(F)cn2)c1OC (centres unmarked) [Example K159]", "> 100 nM"),
    ("CNC(=O)c1cnc(Nc2ccc(CN3CCC(OCC#Cc4cccc5c4n(C)c(=O)n5C4CCC(=O)NC4=O)CC3)cn2)cc1Nc1cccc(-c2ncc(F)cn2)c1OC (centres unmarked) [Example K151]", "> 100 nM"),
    ("CNc1cc(Nc2cccc(CN3CCC4(CCCN(CCC5C=c6c(n(C7CCC(=O)NC7=O)c(=O)n6C)=CC5)C4)C3)c2)nn2c(C(=O)NC3CC3)cnc12 (centres unmarked) [Example K582]", "> 100 nM"),
    ("CNc1cc(Nc2cccn(-c3ccc(C(=O)NCCOCCOCCOCCOCCc4ccc5c(c4)n(C)c(=O)n5C4CCC(=O)NC4=O)cn3)c2=O)nn2c(C(=O)N[C@@H]3C[C@@H]3F)cnc12 (some centres unmarked) [Example K263]", "1 to 10 nM"),
    ("CNc1cc(Nc2ccccc2C(=O)NCCCCCCc2ccc3c(c2)n(C)c(=O)n3C2CCC(=O)NC2=O)nn2c(C(=O)N[C@@H]3C[C@@H]3F)cnc12 (some centres unmarked) [Example K255]", "< 1 nM"),
    ("CNc1cc(Oc2cnn(C3CCN(CC4CCN(c5ccc(-c6ccc7c(c6)n(C)c(=O)n7C6CCC(=O)NC6=O)cc5)CC4)CC3)c2)nn2c(C(=O)N[C@@H]3C[C@@H]3F)cnc12 (mixture of isomers) [Example K547]", "> 100 nM"),
    ("CNc1cc(Nc2cccn(-c3ccc(C(=O)NCCOCCOCCOCCOCCc4cccc5c4n(C)c(=O)n5C4CCC(=O)NC4=O)cn3)c2=O)nn2c(C(=O)N[C@@H]3C[C@@H]3F)cnc12 (some centres unmarked) [Example K218]", "10 to 100 nM"),
]

Prompt: # return DC50 for Cn1c(=O)n(C2CCC(=O)NC2=O)c2ccc(-c3ccc(N4CCN(Cc5ccc(-c6cccc(Nc7ccc8ncc(C(=O)NC9CC9)n8n7)c6)nc5)CC4=O)nc3)cc21 (centres unmarked) [Example K459] , test system: TYK2 (Homo sapiens)
Response: > 100 nM
